Tested on: Staphylococcus epidermidis
Experiment: Potency index, ratio of telithromycin MIC to test compound MIC for antibacterial activity against erythromycin-resistant Staphylococcus epidermidis 19-9 assessed as inhibition of visible bacterial growth incubated for 18 hrs by broth microdilution method
Format: functional
measurement type: Ratio

Below, 3 compounds whose answers are already recorded.
CC[C@H]1OC(=O)[C@@](C)(F)C(=O)[C@H](C)[C@@H](O[C@@H]2O[C@H](C)C[C@H](N(C)C)[C@H]2O)[C@](C)(OC)C[C@@H](C)C(=O)[C@H](C)[C@H]2N(CCCOC(=O)Nc3ccc4sccc4c3)C(=O)O[C@]12C :: 4
CC[C@H]1OC(=O)[C@@](C)(F)C(=O)[C@H](C)[C@@H](O[C@@H]2O[C@H](C)C[C@H](N(C)C)[C@H]2O)[C@](C)(OC)C[C@@H](C)C(=O)[C@H](C)[C@H]2N(CCCOC(=O)Nc3ccc4c(c3)CCO4)C(=O)O[C@]12C :: 4
CC[C@H]1OC(=O)[C@@](C)(F)C(=O)[C@H](C)[C@@H](O[C@@H]2O[C@H](C)C[C@H](N(C)C)[C@H]2O)[C@](C)(OC)C[C@@H](C)C(=O)[C@H](C)[C@H]2N(CCCOC(=O)Nc3ccc(F)cc3)C(=O)O[C@]12C :: 4

Below are 3 compounds. Give each one its Ratio.
1. CC[C@H]1OC(=O)[C@@](C)(F)C(=O)[C@H](C)[C@@H](O[C@@H]2O[C@H](C)C[C@H](N(C)C)[C@H]2O)[C@](C)(OC)C[C@@H](C)C(=O)[C@H](C)[C@H]2N(CCCOC(=O)Nc3cccc4ccccc34)C(=O)O[C@]12C
2. CC[C@H]1OC(=O)[C@@](C)(F)C(=O)[C@H](C)[C@@H](O[C@@H]2O[C@H](C)C[C@H](N(C)C)[C@H]2O)[C@](C)(OC)C[C@@H](C)C(=O)[C@H](C)[C@H]2N(CCCOC(=O)Nc3cccc(F)c3)C(=O)O[C@]12C
3. CC[C@H]1OC(=O)[C@@](C)(F)C(=O)[C@H](C)[C@@H](O[C@@H]2O[C@H](C)C[C@H](N(C)C)[C@H]2O)[C@](C)(OC)C[C@@H](C)C(=O)[C@H](C)[C@H]2N(CCCOC(=O)Nc3cccc(SC)c3)C(=O)O[C@]12C

4
4
4

Provide value of Ratio for this record tested with Staphylococcus epidermidis: `CC[C@H]1OC(=O)[C@@](C)(F)C(=O)[C@H](C)[C@@H](O[C@@H]2O[C@H](C)C[C@H](N(C)C)[C@H]2O)[C@](C)(OC)C[C@@H](C)C(=O)[C@H](C)[C@H]2N(CCCOC(=O)Nc3ccc4ccccc4c3)C(=O)O[C@]12C`
4

====

Tested on: Staphylococcus epidermidis
Assay: Antibacterial activity against erythromycin-resistant Staphylococcus epidermidis 19-9 assessed as inhibition of visible bacterial growth incubated for 18 hrs by broth microdilution method
Format: functional
For each entry below, report its MIC value.
One number for each entry, in µg/mL.

Below, 5 compounds whose answers are already recorded.
CC[C@H]1OC(=O)[C@@](C)(F)C(=O)[C@H](C)[C@@H](O[C@@H]2O[C@H](C)C[C@H](N(C)C)[C@H]2O)[C@](C)(OC)C[C@@H](C)C(=O)[C@H](C)[C@H]2N(CCCOC(=O)Nc3ccc(F)cc3)C(=O)O[C@]12C :: 0.06
CC[C@H]1OC(=O)[C@@](C)(F)C(=O)[C@H](C)[C@@H](O[C@@H]2O[C@H](C)C[C@H](N(C)C)[C@H]2O)[C@](C)(OC)C[C@@H](C)C(=O)[C@H](C)[C@H]2N(CCCOC(=O)Nc3ccc(C(C)C)cc3)C(=O)O[C@]12C :: 1
CC[C@H]1OC(=O)[C@@](C)(F)C(=O)[C@H](C)[C@@H](O[C@@H]2O[C@H](C)C[C@H](N(C)C)[C@H]2O)[C@](C)(OC)C[C@@H](C)C(=O)[C@H](C)[C@H]2N(CCCOC(=O)Nc3ccc(Cl)cc3)C(=O)O[C@]12C :: 0.125
CC[C@H]1OC(=O)[C@@](C)(F)C(=O)[C@H](C)[C@@H](O[C@@H]2O[C@H](C)C[C@H](N(C)C)[C@H]2O)[C@](C)(OC)C[C@@H](C)C(=O)[C@H](C)[C@H]2N(CCCOC(=O)Nc3ccccc3C)C(=O)O[C@]12C :: 0.25
CC[C@H]1OC(=O)[C@@](C)(F)C(=O)[C@H](C)[C@@H](O[C@@H]2O[C@H](C)C[C@H](N(C)C)[C@H]2O)[C@](C)(OC)C[C@@H](C)C(=O)[C@H](C)[C@H]2N(CCCOC(=O)Nc3ccc4c(c3)OCO4)C(=O)O[C@]12C :: 0.125

Here is the next item to consider.
I am curious: what MIC value has been reported for `CC[C@H]1OC(=O)[C@@](C)(F)C(=O)[C@H](C)[C@@H](O[C@@H]2O[C@H](C)C[C@H](N(C)C)[C@H]2O)[C@](C)(OC)C[C@@H](C)C(=O)[C@H](C)[C@H]2N(CCCOC(=O)Nc3ccc(-c4ncccn4)cc3)C(=O)O[C@]12C` ?
0.125

====

Test system: Staphylococcus epidermidis
Assay: Antibacterial activity against erythromycin-resistant Staphylococcus epidermidis 19-9 assessed as inhibition of visible bacterial growth incubated for 18 hrs by broth microdilution method
Assay type: functional
measurement type: MIC

CC[C@H]1OC(=O)[C@@](C)(F)C(=O)[C@H](C)[C@@H](O[C@@H]2O[C@H](C)C[C@H](N(C)C)[C@H]2O)[C@](C)(OC)C[C@@H](C)C(=O)[C@H](C)[C@H]2N(CCCOC(=O)Nc3c(F)cccc3F)C(=O)O[C@]12C :: 0.25 µg/mL

I am curious: what MIC value has been reported for `CC[C@H]1OC(=O)[C@@](C)(F)C(=O)[C@H](C)[C@@H](O[C@@H]2O[C@H](C)C[C@H](N(C)C)[C@H]2O)[C@](C)(OC)C[C@@H](C)C(=O)[C@H](C)[C@H]2N(CCCOC(=O)Nc3cccc(SC)c3)C(=O)O[C@]12C` ?
< 0.03 µg/mL

====

Test system: Streptococcus pyogenes
Experiment: Antibacterial activity against erythromycin-resistant Streptococcus pyogenes ATCC 19615 assessed as inhibition of visible bacterial growth incubated for 18 hrs by broth microdilution method
Assay type: functional
For each entry below, report its MIC value.

Below, 3 compounds whose answers are already recorded.
CC[C@H]1OC(=O)[C@@](C)(F)C(=O)[C@H](C)[C@@H](O[C@@H]2O[C@H](C)C[C@H](N(C)C)[C@H]2O)[C@](C)(OC)C[C@@H](C)C(=O)[C@H](C)[C@H]2N(CCCOC(=O)Nc3ccccc3Cl)C(=O)O[C@]12C :: < 0.03 µg/mL
CC[C@H]1OC(=O)[C@H](C)[C@@H](O[C@H]2C[C@@](C)(OC)[C@@H](O)[C@H](C)O2)[C@H](C)[C@@H](O[C@@H]2O[C@H](C)C[C@H](N(C)C)[C@H]2O)[C@](C)(O)C[C@@H](C)CN(C)[C@H](C)[C@@H](O)[C@]1(C)O [AZITHROMYCIN] :: 0.25 µg/mL
CC[C@H]1OC(=O)[C@@](C)(F)C(=O)[C@H](C)[C@@H](O[C@@H]2O[C@H](C)C[C@H](N(C)C)[C@H]2O)[C@](C)(OC)C[C@@H](C)C(=O)[C@H](C)[C@H]2N(CCCOC(=O)Nc3cccs3)C(=O)O[C@]12C :: < 0.03 µg/mL

I am curious: what MIC value has been reported for `CC[C@H]1OC(=O)[C@@](C)(F)C(=O)[C@H](C)[C@@H](O[C@@H]2O[C@H](C)C[C@H](N(C)C)[C@H]2O)[C@](C)(OC)C[C@@H](C)C(=O)[C@H](C)[C@H]2N(CCCOC(=O)Nc3ccccc3C)C(=O)O[C@]12C` ?
< 0.03 µg/mL

====

Test system: Staphylococcus epidermidis
Assay: Antibacterial activity against erythromycin-resistant Staphylococcus epidermidis 19-9 assessed as inhibition of visible bacterial growth incubated for 18 hrs by broth microdilution method
Format: functional
For each entry below, report its MIC value.
Numbers only, in µg/mL.

Below, 2 compounds whose answers are already recorded.
CCc1ccc(NC(=O)OCCCN2C(=O)O[C@]3(C)[C@@H](CC)OC(=O)[C@@](C)(F)C(=O)[C@H](C)[C@@H](O[C@@H]4O[C@H](C)C[C@H](N(C)C)[C@H]4O)[C@](C)(OC)C[C@@H](C)C(=O)[C@H](C)[C@@H]23)cc1 :: 0.125
CC[C@H]1OC(=O)[C@@](C)(F)C(=O)[C@H](C)[C@@H](O[C@@H]2O[C@H](C)C[C@H](N(C)C)[C@H]2O)[C@](C)(OC)C[C@@H](C)C(=O)[C@H](C)[C@H]2N(CCCOC(=O)Nc3ccc(C(F)(F)F)cc3)C(=O)O[C@]12C :: 0.25

Here is the next item to consider.
I am curious: what MIC value has been reported for `CC[C@H]1OC(=O)[C@@](C)(F)C(=O)[C@H](C)[C@@H](O[C@@H]2O[C@H](C)C[C@H](N(C)C)[C@H]2O)[C@](C)(OC)C[C@@H](C)C(=O)[C@H](C)[C@H]2N(CCCOC(=O)Nc3cccc(C)c3)C(=O)O[C@]12C` ?
0.06

Attribution: ChEMBL document CHEMBL5543097
